Kindly supply the reported Ki values for the records listed here.
# assayProtocol: Binding affinity against PCP site of the NMDA Receptor using [3H]TCP radioligand
Give the value in nM but do not write nM after it.

Record summary for C[C@H]1NC2c3cccc(N)c3C1C1CCCC21 (some centres not stated) : reported Ki = 8

Record summary for C[C@@H]1NC2c3cccc(N)c3C1C1CCCC21 (stereo in doubt; 12a) : reported Ki = 89

Record summary for Oc1cccc(C2(N3CCCCC3)CCCCC2)c1 : reported Ki = 38

Record summary for CN1CC2c3c(N)cccc3C1C1CCCC21 (configuration not stated) : reported Ki = 226

Record summary for Nc1cccc2c1C1CNC2C2CCCC12 (configuration not stated) : reported Ki = 14

Record summary for CN1CC2c3ccccc3C1C1CCCC21 (configuration not stated) : reported Ki = 1140

Record summary for C[C@@H]1NC2c3cccc(N)c3C1C1CCCC21 (stereo in doubt; 13) : reported Ki = 1200

----------
# assayProtocol: Binding affinity against PCP site of the NMDA Receptor using [3H]TCP radioligand
Kindly supply the reported Ki values for the records listed here.
Give the value in nM but do not write nM after it.

Record summary for C[C@]12N[C@H](Cc3ccccc31)c1ccccc12 : reported Ki = 2.2

Record summary for c1ccc2c(c1)C1CNC2C2CCCC12 (stereo not drawn) : reported Ki = 52

Record summary for CN1CC2c3c(N)cccc3C1C1C=CCC21 (stereo not drawn) : reported Ki = 701
